B1: RIPK4 (parent)
chain: RERMELLEEAKKMEMAKFRYILPV

- Variants of: B1
- protocol-notes: protein stability index of a GFP-peptide fusion (GPS, HEK-293T) (PSI 1-6); higher = more stable;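 also: lentivirally expressed fusions sorted by FACS into six bins by GFP to DsRed ratio, PSI derived from sequencing read proportions per bin multiplied by bin number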
- experimental-setup: c terminus: a fixed tail appended
metric-name: protein stability index
// response body must contain only the number

Sample answers from the record:
E5S | 2.11
L6Y | 3.83
M15F | 3.91

Look at this variant and give its reported protein stability index. L6V
2.9

And what about the variant E8F ?
2.68

And what about the variant E14V ?
1.71

And what about the variant L6N ?
3.66

And what about the variant K17C ?
2.01
